Entries and their measured inhibition at 0.1 µM follow.
- MEASURED ON: PI3Kγ (Homo sapiens, UniProt P48736)
- Sequence (P48736 whole entry): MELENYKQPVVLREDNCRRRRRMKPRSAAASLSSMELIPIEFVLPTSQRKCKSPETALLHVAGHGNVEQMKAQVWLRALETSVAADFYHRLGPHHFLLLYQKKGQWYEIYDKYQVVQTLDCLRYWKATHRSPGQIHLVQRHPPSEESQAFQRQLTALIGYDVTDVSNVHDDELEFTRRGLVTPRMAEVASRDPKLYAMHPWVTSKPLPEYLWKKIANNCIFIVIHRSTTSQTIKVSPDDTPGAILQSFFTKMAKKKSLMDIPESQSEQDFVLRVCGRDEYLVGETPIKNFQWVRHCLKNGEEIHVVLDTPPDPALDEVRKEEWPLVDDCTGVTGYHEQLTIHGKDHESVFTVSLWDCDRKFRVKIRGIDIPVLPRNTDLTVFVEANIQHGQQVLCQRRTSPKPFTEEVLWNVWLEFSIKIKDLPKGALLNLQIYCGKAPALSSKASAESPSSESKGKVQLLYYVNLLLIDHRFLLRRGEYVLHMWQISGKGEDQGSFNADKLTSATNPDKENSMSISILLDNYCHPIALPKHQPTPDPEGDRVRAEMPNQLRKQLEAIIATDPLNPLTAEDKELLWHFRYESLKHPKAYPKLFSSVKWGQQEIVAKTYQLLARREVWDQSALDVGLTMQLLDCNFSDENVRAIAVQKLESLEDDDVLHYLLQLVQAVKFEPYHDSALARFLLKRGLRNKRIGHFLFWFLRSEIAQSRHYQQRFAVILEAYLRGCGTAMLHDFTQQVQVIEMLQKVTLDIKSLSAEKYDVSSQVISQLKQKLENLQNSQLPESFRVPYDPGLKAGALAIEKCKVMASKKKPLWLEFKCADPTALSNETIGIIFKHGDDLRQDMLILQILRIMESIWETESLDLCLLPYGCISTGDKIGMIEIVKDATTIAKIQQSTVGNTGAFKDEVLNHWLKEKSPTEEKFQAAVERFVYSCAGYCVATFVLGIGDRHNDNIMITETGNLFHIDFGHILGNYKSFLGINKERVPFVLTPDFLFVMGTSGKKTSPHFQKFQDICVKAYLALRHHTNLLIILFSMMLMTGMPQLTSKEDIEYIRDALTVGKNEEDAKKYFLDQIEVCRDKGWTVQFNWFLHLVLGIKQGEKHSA
- ASSAY TEXT: Fluorescent determination of PI3Kinase enzyme activity (HTRF), PI3Kγ
- Format: biochemical
- CONDITION SUMMARY: 100 nM (underlined values: 300 nM)
- Source text: Fluorescent Determination of PI3Kinase Enzyme Activity Phosphoinositide 3 kinases (PI3K) belong to a class of Lipid kinases that play a critical role in the regulation of several key cellular processes. […] The homogenous time resolved fluorescence (HTRF) assay allows detection of 3,4,5-triphosphate (PIP3) formed as a result of phosphorylation of phosphotidylinositol 4,5-biphosphate (PIP2) by PI3K isoforms such as α, […], γ or δ. […]

Reference set (4 entries):
[[record]]
compound = "COc1ccc(-c2nn(C(C)c3cc4cccc(Cl)c4c(=O)n3-c3ccccc3)c3ncnc(N)c23)cc1NS(C)(=O)=O (stereo not shown)"
readout = "inhibition at 0.1 µM"
test_value = "60 to 80%"

[[record]]
compound = "CC(C)Oc1ccc(-c2nn(C(C)c3cc4ccccc4c(=O)n3-c3ccccc3)c3ncnc(N)c23)cc1F (stereo not shown)"
readout = "inhibition at 0.1 µM"
test_value = "60 to 80%"

[[record]]
compound = "C[C@H](c1cc2ccccc2c(=O)n1-c1ccccc1)n1nc(-c2ccc(O)c(F)c2)c2c(N)ncnc21"
readout = "inhibition at 0.1 µM"
test_value = "20 to 40%"

[[record]]
compound = "CC(c1cc2cccc(F)c2c(=O)n1-c1ccccc1)n1nc(-c2ccc(O)c(F)c2)c2c(N)ncnc21 (stereo not shown)"
readout = "inhibition at 0.1 µM"
test_value = "40 to 60%"


[Q] Sample CC(c1nc2ccc(F)cc2c(=O)n1-c1ccccc1)n1nc(-c2ccc(O)c(F)c2)c2c(N)ncnc21 (stereo not shown) — what was its inhibition at 0.1 µM?
[A] 20 to 40%

[Q] Sample CC(c1cc2ccccc2c(=O)n1-c1ccccc1)n1nc(-c2ccc(O)c(F)c2)c2c(N)ncnc21 (stereo not shown) — what was its inhibition at 0.1 µM?
[A] 20 to 40%

[Q] Sample CC(C)Oc1ccc(-c2nn(C(C)c3cc4cccc(Cl)c4c(=O)n3-c3ccccc3)c3ncnc(N)c23)cc1F (stereo not shown) — what was its inhibition at 0.1 µM?
[A] 0 to 20%

[Q] Sample CC(C)Oc1ccc(-c2nn(C(C)c3nc4cccc(F)c4c(=O)n3-c3ccccc3)c3ncnc(N)c23)cc1F (stereo not shown) — what was its inhibition at 0.1 µM?
[A] 0 to 20%

[Q] Sample C[C@@H](c1cc2ccccc2c(=O)n1-c1ccccc1)n1nc(-c2ccc(O)c(F)c2)c2c(N)ncnc21 — what was its inhibition at 0.1 µM?
[A] 60 to 80%

[Q] Sample C[C@@H](c1nc2cccc(F)c2c(=O)n1-c1ccccc1)n1nc(-c2ccc(O)c(F)c2)c2c(N)ncnc21 [Example 16a] — what was its inhibition at 0.1 µM?
[A] 20 to 40%

[Q] Sample CC(c1nc2cccc(F)c2c(=O)n1-c1ccccc1)n1nc(-c2ccc(O)c(F)c2)c2c(N)ncnc21 (stereo not shown) — what was its inhibition at 0.1 µM?
[A] 40 to 60%

[Q] Sample Cc1n[nH]c2cc(-c3nn([C@@H](C)c4cc5cccc(Cl)c5c(=O)n4-c4ccccc4)c4ncnc(N)c34)ccc12 [Example 21a] — what was its inhibition at 0.1 µM?
[A] 60 to 80%

[Q] Sample CC(c1cc2cccc(Cl)c2c(=O)n1-c1ccccc1)n1nc(-c2ccc(OC(F)F)c(F)c2)c2c(N)ncnc21 (stereo not shown) — what was its inhibition at 0.1 µM?
[A] 80 to 100%

[Q] Sample C[C@H](c1cc2cccc(Cl)c2c(=O)n1-c1ccccc1)n1nc(-c2ccc(OC(F)F)c(F)c2)c2c(N)ncnc21 [Example 17b] — what was its inhibition at 0.1 µM?
[A] 80 to 100%

[Q] Sample CC(C)Oc1ccc(-c2nn(C(C)c3nc4ccccc4c(=O)n3-c3ccccc3)c3ncnc(N)c23)cc1F (stereo not shown) — what was its inhibition at 0.1 µM?
[A] 40 to 60%

[Q] Sample Cc1n[nH]c2cc(-c3nn(C(C)c4cc5cccc(Cl)c5c(=O)n4-c4ccccc4)c4ncnc(N)c34)ccc12 (stereo not shown) — what was its inhibition at 0.1 µM?
[A] 60 to 80%
